# Target under test: Pro-neuregulin-1, membrane-bound isoform (Homo sapiens)
# Assay remarks: NRG1 binders on small-molecule microarrays, primary screen, psychiatric disease protein project, biochemical, small-molecule microarray, fluorescence 635/667 (AID 1075);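 further: score combines 667 nm spot fluorescence with signal to noise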
# Experimental conditions: NRG1 binding, 635 nm fluorescence, higher = more signal
Measure: composite z-score

Please review the following examples before continuing.
Molecule	Target under test	composite z-score
COCCOC(=O)N1C(=O)[C@@]2(c3cc(C#CC4(O)CCCCCC4)ccc31)[C@H](c1ccccc1OCCO)N1[C@H](c3ccccc3)[C@H](c3ccccc3)OC(=O)[C@H]1[C@@H]2C(=O)N1CCCCCCC1	Pro-neuregulin-1, membrane-bound isoform (Homo sapiens)	1.45
Cc1ccc(S[C@]2(C(=O)NCC(F)(F)F)CC(=O)N(C3CCCCC3)[C@@H]2c2ccc(CO)cc2)cc1	Pro-neuregulin-1, membrane-bound isoform (Homo sapiens)	1.66
C=C(COC)/C(=C/C[C@H](OC(=O)c1ccncc1)c1cccc(OCCO)c1)c1cnc2ccccc2c1	Pro-neuregulin-1, membrane-bound isoform (Homo sapiens)	1.3
COC(=O)Cn1c(C(=O)N(C)C)cc2c1C[C@H]1CN(C(=O)c3ccccc3)[C@@](Cc3ccc(OC)cc3)(C(=O)OC)[C@@H]21	Pro-neuregulin-1, membrane-bound isoform (Homo sapiens)	2.13
C[C@H]1NC(=O)C([C@@H](C)OCc2ccccc2)NC(=O)[C@@]23C(=O)N[C@@H](Cc4ccccc4)C2[C@H](C)[C@@]2(C)O[C@H]2C3/C=C/C/C=C\CNC1=O (stereo partly specified)	Pro-neuregulin-1, membrane-bound isoform (Homo sapiens)	-0.341

Give one value of composite z-score per listed molecule.
1. Cc1ccc(S(=O)(=O)N2[C@@H](c3ccccc3)C(C(=O)O)=CC[C@H]2c2ccc(C#N)cc2)cc1
2. CCCC[C@H]1OB(O)C[C@H]2C1=C(COC)C[C@H]1C(=O)C=CC(=O)[C@H]12
3. COCCOC(=O)N1C(=O)[C@@]2(c3cc(C#Cc4ccc(OC)cc4)ccc31)[C@H](C(=O)Nc1nc3ccccc3s1)[C@H]1C(=O)O[C@H](c3ccccc3)[C@H](c3ccccc3)N1[C@@H]2c1ccccc1OCCO
4. COCCOC(=O)N1C(=O)[C@@]2(c3ccccc31)[C@H](c1ccc(OCCO)cc1)N1[C@H](c3ccccc3)[C@H](c3ccccc3)OC(=O)[C@H]1[C@@H]2C(=O)N1CCN(c2ncccn2)CC1
5. C=CCC(OC(C)=O)[C@@H]1[C@@H](N(Cc2ccc(-c3cccc(C(F)(F)F)c3)o2)C(=O)Cc2ccc(OC)cc2)c2cc(OCCCO)ccc2N1C(=O)c1ccc2ccccc2n1 (stereo partly specified)
6. C=CC[C@@]1(C(=O)N(C)C)N=C(c2ccc(OCCCO)cc2)O[C@@H]1c1ccccc1

Key:
1.72
-0.279
0.176
1.33
-0.249
2.08

I would be grateful if you could provide composite z-score for each of the following entries.
1. C=C(CCCC)C(=O)CC[C@H](OC(=O)c1cccnc1)c1ccc(CO)o1
2. COc1ccc(CCNC(=O)[C@@]2(Sc3ccc(C)cc3)CC(=O)N(C(C)C)[C@@H]2c2ccc(CO)cc2)cc1
3. CC(C)C[C@H]1NC(=O)[C@H](Cc2ccccc2)NC(=O)[C@@]23C(=O)N[C@@H](Cc4ccccc4)C2[C@H](C)[C@@]2(C)O[C@H]2C3/C=C/C/C=C\CNC1=O (stereo partly specified)
4. COC(=O)[C@@]1(Cc2ccc(OC)cc2)[C@H]2c3cc(C(=O)N4CCCC4)n(CCc4ccc(OC)c(Br)c4)c3C[C@H]2CN1C(=O)c1ccccc1
5. C=CCC(OC(C)=O)[C@@H]1[C@@H](N(Cc2ccc(-c3cccc(C(F)(F)F)c3)o2)C(=O)Cc2ccc(F)cc2)c2cc(OCCCO)ccc2N1C(=O)c1ccc2ccccc2c1 (stereo partly specified)

Key:
1. 0.407
2. 0.871
3. 1.03
4. 2.17
5. -0.28
